- Test system: RAW-Dual (murine macrophage reporter line)
- assay.notes: IRF reporter (Lucia luciferase) activity fold change vs agonist alone; higher = enhanced IRF activity
- study.conditions: modulator concentration 10 µM; agonist: 3'3'-cGAMP 10 ug/mL
The reader will find reported IRF reporter values listed item by item below.

{"compound": "CC(=O)NNC(=O)c1ccncc1", "IRF reporter": 1}
{"compound": "N=C1NC(=O)C(=Cc2ccc(-c3ccc(F)cc3)o2)S1", "IRF reporter": 1.02}
{"compound": "OCCCNCC(O)Cn1c2ccc(Br)cc2c2cc(Br)ccc21 (stereo unspecified)", "IRF reporter": 0.626}
{"compound": "CCOC(=O)OC(C)OC1=C(C(=O)Nc2ccccn2)N(C)S(=O)(=O)c2ccccc21 (stereo unspecified)", "IRF reporter": 0.948}
{"compound": "O=C(Nc1cc(N2CCN(Cc3ccccc3)CC2)ncn1)c1ccc2ccccc2n1", "IRF reporter": 0.94}
{"compound": "COc1ccc(Cl)cc1S(=O)(=O)NCc1ccccn1", "IRF reporter": 1.01}

----------
- Test system: RAW-Dual (murine macrophage reporter line)
- assay.notes: viability score (confluency relative to resting cells, overnight) (fraction); higher = more viable, active = viable (0.7 or more)
- study.conditions: modulator concentration 10 µM
measured.property: viability score

{"compound": "NC(Cc1ccccc1)C(=O)O (configuration not stated)", "experimental.target": "RAW-Dual (murine macrophage reporter line)", "measured.property": "viability score", "test.result": 1}
{"compound": "O=C(NC1CC2CCC1C2)c1ccccc1Cl (configuration not stated)", "experimental.target": "RAW-Dual (murine macrophage reporter line)", "measured.property": "viability score", "test.result": 1.02}
{"compound": "CC1CC(=O)C2=C(C1)OC(N)=C(C#N)C2c1ccc(Cl)cc1 (configuration not stated)", "experimental.target": "RAW-Dual (murine macrophage reporter line)", "measured.property": "viability score", "test.result": 0.992}
{"compound": "CC(=O)Nc1cccs1", "experimental.target": "RAW-Dual (murine macrophage reporter line)", "measured.property": "viability score", "test.result": 0.998}
{"compound": "CCOc1ccccc1NC(=O)NCc1sc(-c2ccccc2Cl)nc1C", "experimental.target": "RAW-Dual (murine macrophage reporter line)", "measured.property": "viability score", "test.result": 1}
{"compound": "CC(=O)Nc1ccc2nc(NC(=O)c3ccco3)sc2c1", "experimental.target": "RAW-Dual (murine macrophage reporter line)", "measured.property": "viability score", "test.result": 1}
{"compound": "COc1ccc(-c2[nH]c(-c3cccc(OC)c3)nc2SCC(=O)NC2CCCC2)cc1", "experimental.target": "RAW-Dual (murine macrophage reporter line)", "measured.property": "viability score", "test.result": 1}
{"compound": "CN1CCN(C(CC(=O)Nc2cccc(C(F)(F)F)c2)C(=O)O)CC1 (configuration not stated)", "experimental.target": "RAW-Dual (murine macrophage reporter line)", "measured.property": "viability score", "test.result": 0.999}
{"compound": "C#CC1(O)CCC2C3CCC4=Cc5oncc5CC4(C)C3CCC21C (configuration not stated)", "experimental.target": "RAW-Dual (murine macrophage reporter line)", "measured.property": "viability score", "test.result": 0.958}
{"compound": "O=c1ccn([C@@H]2O[C@H](CO)[C@@H](O)[C@H]2O)c(=O)[nH]1", "experimental.target": "RAW-Dual (murine macrophage reporter line)", "measured.property": "viability score", "test.result": 0.998}
{"compound": "CC1(C)OC(=O)C(=Cc2ccc(I)o2)C(=O)O1", "experimental.target": "RAW-Dual (murine macrophage reporter line)", "measured.property": "viability score", "test.result": 1.01}
{"compound": "CN1CCN2c3ccccc3Cc3ccccc3C2C1.Cl (configuration not stated)", "experimental.target": "RAW-Dual (murine macrophage reporter line)", "measured.property": "viability score", "test.result": 0.307}
